- system-under-test: T1, Mouse-Fc-tagged SARS-CoV2 S1-RBD (Sino Biologicals) recombinant protein (SARS-CoV-2, UniProt P0DTC2 319-541)
- T1 construct: domain: S1-RBD
- procedure-text: competition ELISA: blocks S1-RBD-mFc binding to coated ACE-2 ECD
quantity-kind: IC50 (µg/mL)
The reply should be a number in µg/mL, with the unit left off.

Given item P043.A.00023.A08 (protein sample ID 446) (antibody, V domains shown) VH: QSVEESGGRLVTPGTPLTLTCTVSGFSLSKYAMSWVRQAPGKGLEWIGIISSGGSTYYASWAKGRFTISKTSSTTVDLKITSPTTEDTATYFCARAGYPGYSPHYFNIWGPGTLVTVSL VL: AIQMTQSPSSLAASVGDTVTITCKASEDIGYELNWYQQKLGIAPKLLIYGANTLESGVPSRFTGSGSETDYTLTISSVQAEDAGIYYCQQGYSTPPTFGAGTKVEIK , the value recorded as its IC50 is 0.0373
